- System: HS-PSS
- assayInfo: relative IC50 (inflection point of fitted dose-response curve, CellTiter-Glo viability, 72 h; top asymptote may be below 50% inhibition); higher = less potent
quantity: relative IC50 (nM)

>>> experimentalvalue("CNc1ncc2cc(-c3cc(NC(=O)NCCC(C)(C)C)c(F)cc3C)c(C)nc2n1")
3820
>>> experimentalvalue("CN[C@@H]1C[C@H]2O[C@@](C)([C@@H]1OC)n1c3ccccc3c3c4c(c5c6ccccc6n2c5c31)C(=O)N[C@H]4O [UCN-01]")
121
>>> experimentalvalue("O=C1NC(=O)/C(=C/c2ccc3nccc(-c4ccncc4)c3c2)S1")
3060
>>> experimentalvalue("CO[C@H]1C[C@@H]2CC[C@@H](C)[C@@](O)(O2)C(=O)C(=O)N2CCCC[C@H]2C(=O)O[C@H]([C@H](C)C[C@@H]2CC[C@@H](OC(=O)C(C)(CO)CO)[C@H](OC)C2)CC(=O)[C@H](C)/C=C(\\C)[C@@H](O)[C@@H](OC)C(=O)[C@H](C)C[C@H](C)/C=C/C=C/C=C/1C [Temsirolimus]")
1.13
>>> experimentalvalue("Nc1nc(Cl)nc2c1ncn2[C@@H]1O[C@H](CO)[C@@H](O)[C@@H]1F [Clofarabine]")
387
>>> experimentalvalue("COc1c(OCCCN2CCOCC2)ccc2c1N=C(NC(=O)c1cnc(N)nc1)N1CCN=C21 [Copanlisib]")
405
>>> experimentalvalue("COc1cc2/c(=N/c3ccc(Br)cc3F)nc[nH]c2cc1OCC1CCN(C)CC1 [Vandetanib]")
86.5
>>> experimentalvalue("Cc1ncc(-c2ccnc(Nc3ccc(S(C)(=O)=O)cc3)n2)n1C(C)C [AZD-5438]")
367
>>> experimentalvalue("CC(C)(C)C[C@@H]1N[C@@H](C(=O)N[C@H]2CC[C@H](O)CC2)[C@H](c2cccc(Cl)c2F)[C@]12C(=O)Nc1cc(Cl)ccc12")
3280
>>> experimentalvalue("Cc1ccc(NC(=O)c2ccc(CN3CCN(C)CC3)cc2)cc1Nc1nccc(-c2cccnc2)n1 [Imatinib]")
2380
>>> experimentalvalue("Cc1ccc(NC(=O)c2ccc(CN3CCN(C)CC3)cc2)cc1Nc1nc(-c2cccnc2)cs1 [Masitinib]")
1830
>>> experimentalvalue("O=C(Nc1c[nH]nc1-c1nc2ccc(CN3CCOCC3)cc2[nH]1)NC1CC1 [AT9283]")
178
>>> experimentalvalue("COC[C@H](NC(=O)c1cnc(C)s1)C(=O)N[C@@H](COC)C(=O)N[C@@H](Cc1ccccc1)C(=O)[C@@]1(C)CO1 [Oprozomib]")
148
>>> experimentalvalue("C[C@]12O[C@H](C[C@]1(O)CO)n1c3ccccc3c3c4c(c5c6ccccc6n2c5c31)CNC4=O [Lestaurtinib]")
87.2
>>> experimentalvalue("CCOC(=O)CCNc1cc(N2CCc3ccccc3CC2)nc(-c2ccccn2)n1 [GSK-J4]")
6010
>>> experimentalvalue("O=C(c1ccc(OCCN2CCCCC2)cc1)c1c(-c2ccc(O)cc2)sc2cc(O)ccc12 [Raloxifene]")
1130
>>> experimentalvalue("O=C(O)c1ccc(Nc2ncc3c(n2)-c2ccc(Cl)cc2C(c2c(F)cccc2F)=NC3)cc1 [MLN-8054]")
1260
>>> experimentalvalue("O=C(Nc1ccc(-c2ccnc(Nc3ccc(N4CCOCC4)cc3)n2)cc1)[C@H]1CCCN1 [XL019]")
2850
>>> experimentalvalue("CN1CCN(CCOc2cc(OC3CCOCC3)c3c(Nc4c(Cl)ccc5c4OCO5)ncnc3c2)CC1 [Saracatinib]")
1570
>>> experimentalvalue("C[C@@H]1C[C@H]2O[C@@H]2/C=C\\C=C\\C(=O)Cc2c(Cl)c(O)cc(O)c2C(=O)O1 [Radicicol]")
545
>>> experimentalvalue("COc1ccccc1S(=O)(=O)Nc1ccc2c(c1)CN(C)C(=O)N2 [PFI-1]")
3730
>>> experimentalvalue("CC[C@]1(O)C[C@@H]2CN(CCc3c([nH]c4ccccc34)[C@@](C(=O)OC)(c3cc4c(cc3OC)N(C)[C@H]3[C@@](O)(C(=O)OC)[C@H](OC(C)=O)[C@]5(CC)C=CCN6CC[C@]43[C@@H]65)C2)C1 [Vinblastine]")
10.9
